biological target: UniProt P62937
Sequence (P62937 whole entry): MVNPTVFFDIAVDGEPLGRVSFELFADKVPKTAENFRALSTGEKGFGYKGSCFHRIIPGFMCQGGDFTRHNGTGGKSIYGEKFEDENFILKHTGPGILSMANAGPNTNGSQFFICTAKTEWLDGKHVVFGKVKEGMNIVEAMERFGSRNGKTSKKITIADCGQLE
pKi: −log10 of the molar value.

Compound: NC(=O)C1CCNC(=O)C=CC(=O)N2CCCC(Cc3ccccc3)(C2)C(=O)NC(Cc2ccc(-c3ccc(C=O)c(B(O)O)c3)cc2)C(=O)NCc2ccccc2CC(=O)N1 (stereo not shown)
pKi: 5.74

====

Entries and their measured pIC50 follow.
Target: NKTR (Homo sapiens)
Construct: NKTR (UniProtKB Entry P30414: residues 7–179); host or cells: E. coli BL21(DE3)
Sequence (P30414 7-179): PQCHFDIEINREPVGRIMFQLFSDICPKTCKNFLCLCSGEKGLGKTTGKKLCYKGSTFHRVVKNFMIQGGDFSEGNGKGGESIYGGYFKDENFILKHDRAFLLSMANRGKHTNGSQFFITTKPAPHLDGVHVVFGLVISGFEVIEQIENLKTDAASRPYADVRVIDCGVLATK
Experiment: Chymotrypsin coupled prolyl-isomerase assay
Format: biochemical
Details: wild-type NKTR; read-out: Wild-Type Cyclophilin Prolyl Isomerase Inhibition IC50 Values, NKTR
pIC50: −log10 of the molar value.

Compound: CC(=O)c1ccc(-c2ccc(C[C@@H]3NC(=O)[C@]4(Cc5ccccc5)CCCN(C4)C(=O)/C=C/C(=O)NCC[C@@H](C(=O)NCCOCCN)NC(=O)Cc4ccccc4CNC3=O)cc2)cc1
Readout Relation: =
pIC50: 5.31

Compound: NCCOCCNC(=O)[C@@H]1CCNC(=O)/C=C/C(=O)N2CCC[C@](Cc3ccccc3)(C2)C(=O)N[C@@H](Cc2ccc(-c3ccc(C(=O)O)cc3)cc2)C(=O)NCc2ccccc2CC(=O)N1
Readout Relation: <
pIC50: 4.00

Compound: NC(=O)[C@@H]1CCNC(=O)/C=C/C(=O)N2CCC[C@](Cc3ccccc3)(C2)C(=O)N[C@@H](Cc2ccc(-c3cccc(B(O)O)c3)cc2)C(=O)NCc2ccccc2CC(=O)N1
Readout Relation: =
pIC50: 5.30

Compound: NC(=O)C1CCNC(=O)C=CC(=O)N2CCCC(Cc3ccccc3)(C2)C(=O)NC(Cc2ccc(-c3ccc(C=O)c(B(O)O)c3)cc2)C(=O)NCc2ccccc2CC(=O)N1 (centres unmarked)
Readout Relation: =
pIC50: 4.48

Compound: NCCOCCNC(=O)[C@@H]1CCNC(=O)/C=C/C(=O)N2CCC[C@](Cc3ccccc3)(C2)C(=O)N[C@@H](Cc2ccc(-c3ccc(CCC(=O)O)cc3)cc2)C(=O)NCc2ccccc2CC(=O)N1
Readout Relation: <
pIC50: 4.00

Compound: C[N+]1=C(C=CC=CC=C2N(CCCCCC(=O)NCCNC(=O)C3CCNC(=O)C=CC(=O)N4CCCC(Cc5ccccc5)(C4)C(=O)NC(Cc4ccc(-c5ccc(CC(C(=O)O)C(=O)O)cc5)cc4)C(=O)NCc4ccccc4CC(=O)N3)c3ccccc3C2(C)C)C(C)(C)c2ccccc21 (centres unmarked) [*B52-Cy5]
Readout Relation: <
pIC50: 5.00

Compound: NCCOCCNC(=O)C1CCNC(=O)C=CC(=O)N2CCCC(Cc3ccccc3)(C2)C(=O)NC(Cc2ccco2)C(=O)NCc2ccccc2CC(=O)N1 (centres unmarked)
Readout Relation: =
pIC50: 5.38

Compound: NCCOCCNC(=O)[C@@H]1CCNC(=O)/C=C/C(=O)N2CCC[C@](Cc3ccccc3)(C2)C(=O)N[C@@H](Cc2ccc(-c3ccc(CC(C(=O)O)C(=O)O)cc3)cc2)C(=O)NCc2ccccc2CC(=O)N1
Readout Relation: <
pIC50: 4.00

====

target: CypG (Homo sapiens, UniProt Q13427); construct: PPIG (UniProtKB Entry Q13427: residues 1–179); His6 with thrombin site (pET28a LIC leader) (N); host or cells: E. coli BL21(DE3); assay: Chymotrypsin coupled prolyl-isomerase assay; format: biochemical; conditions: wild-type CypG; read-out: Wild-Type Cyclophilin Prolyl Isomerase Inhibition IC50 Values, CypG
Sequence (Q13427 1-179): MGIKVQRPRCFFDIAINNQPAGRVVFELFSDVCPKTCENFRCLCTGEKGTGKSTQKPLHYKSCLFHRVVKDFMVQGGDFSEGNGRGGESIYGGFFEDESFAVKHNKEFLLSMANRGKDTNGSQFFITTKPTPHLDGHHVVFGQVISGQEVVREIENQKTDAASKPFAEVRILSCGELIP
Items are presented alongside their recorded IC50.

Compound: NCCOCCNC(=O)C1CCNC(=O)C=CC(=O)N2CCCC(C2)C(=O)NC(Cc2ccc(C(=O)c3ccccc3)cc2)C(=O)NCc2ccccc2CC(=O)N1 (stereo not drawn)
Readout Relation: >
IC50, µM: 100
--
Compound: NC(=O)[C@@H]1CCNC(=O)/C=C/C(=O)N2CCC[C@](Cc3ccccc3)(C2)C(=O)N[C@@H](Cc2ccc(-c3cccc(B(O)O)c3)cc2)C(=O)NCc2ccccc2CC(=O)N1
Readout Relation: =
IC50, µM: 1.3
--
Compound: NCCOCCNC(=O)[C@@H]1CCNC(=O)/C=C/C(=O)N2CCC[C@](Cc3ccccc3)(C2)C(=O)N[C@@H](Cc2ccc(C(=O)c3ccccc3)cc2)C(=O)NCc2ccccc2CC(=O)N1
Readout Relation: =
IC50, µM: 70

====

// reported IC50 per item
Target: PPIL1 (Homo sapiens, UniProt Q9Y3C6)
Construct: PPIL1 (UniProtKB Entry Q9Y3C6: residues 1–166); made in house; host or cells: E. coli BL21(DE3)
Sequence (Q9Y3C6 1-166): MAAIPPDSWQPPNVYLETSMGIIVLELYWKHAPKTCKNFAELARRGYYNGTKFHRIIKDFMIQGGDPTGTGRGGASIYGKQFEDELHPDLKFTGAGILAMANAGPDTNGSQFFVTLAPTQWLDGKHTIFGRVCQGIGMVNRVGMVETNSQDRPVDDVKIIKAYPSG
Test: Chymotrypsin coupled prolyl-isomerase assay
Type: biochemical
Conditions: wild-type PPIL1; read-out: Wild-Type Cyclophilin Prolyl Isomerase Inhibition IC50 Values, PPIL1
Measure: IC50 (µM)

Compound: NCCOCCNC(=O)C1CCNC(=O)C=CC(=O)N2CCCC(Cc3ccccc3)(C2)C(=O)NC(Cc2ccco2)C(=O)NCc2ccccc2CC(=O)N1 (centres unmarked) [Compound A26]
Test Target: PPIL1 (Homo sapiens, UniProt Q9Y3C6)
Measure: IC50
Display Unit: µM
Readout Relation: =
Data Value: 0.6
--
Compound: NC(=O)[C@@H]1CCNC(=O)/C=C/C(=O)N2CCC[C@](Cc3ccccc3)(C2)C(=O)N[C@@H](Cc2ccc(-c3cccc(B(O)O)c3)cc2)C(=O)NCc2ccccc2CC(=O)N1 [Compound C6A]
Test Target: PPIL1 (Homo sapiens, UniProt Q9Y3C6)
Measure: IC50
Display Unit: µM
Readout Relation: >
Data Value: 10
--
Compound: CC(=O)c1ccc(-c2ccc(C[C@@H]3NC(=O)[C@]4(Cc5ccccc5)CCCN(C4)C(=O)/C=C/C(=O)NCC[C@@H](C(=O)NCCOCCN)NC(=O)Cc4ccccc4CNC3=O)cc2)cc1 [Compound B15]
Test Target: PPIL1 (Homo sapiens, UniProt Q9Y3C6)
Measure: IC50
Display Unit: µM
Readout Relation: =
Data Value: 0.1
--
Compound: NCCOCCNC(=O)[C@@H]1CCNC(=O)/C=C/C(=O)N2CCC[C@](Cc3ccccc3)(C2)C(=O)N[C@@H](Cc2ccc(-c3ccc(C(CC(=O)O)CC(=O)O)cc3)cc2)C(=O)NCc2ccccc2CC(=O)N1 [Compound B53]
Test Target: PPIL1 (Homo sapiens, UniProt Q9Y3C6)
Measure: IC50
Display Unit: µM
Readout Relation: >
Data Value: 50
--
Compound: NCCOCCNC(=O)[C@@H]1CCNC(=O)/C=C/C(=O)N2CCC[C@](Cc3ccccc3)(C2)C(=O)N[C@@H](Cc2ccc(-c3ccc(CC(C(=O)O)C(=O)O)cc3)cc2)C(=O)NCc2ccccc2CC(=O)N1 [Compound B52]
Test Target: PPIL1 (Homo sapiens, UniProt Q9Y3C6)
Measure: IC50
Display Unit: µM
Readout Relation: =
Data Value: 6

====

Below, each entry is listed with its recorded pIC50.
target: CypC (Homo sapiens, UniProt P45877); construct: PPIC (UniProtKB Entry P45877: residues 24–212); host or cells: E. coli BL21(DE3); experiment: Chymotrypsin coupled prolyl-isomerase assay; format: biochemical; conditions: wild-type CypC; read-out: Wild-Type Cyclophilin Prolyl Isomerase Inhibition IC50 Values, CypC
Sequence (P45877 24-212): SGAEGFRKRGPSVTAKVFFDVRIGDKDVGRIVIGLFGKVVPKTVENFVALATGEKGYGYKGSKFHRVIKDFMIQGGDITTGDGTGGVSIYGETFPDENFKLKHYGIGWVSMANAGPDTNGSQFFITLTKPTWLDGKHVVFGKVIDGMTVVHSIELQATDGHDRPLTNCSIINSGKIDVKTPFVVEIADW
pIC50: −log10 of the molar value.

Compound: NCCOCCNC(=O)C1CCNC(=O)C=CC(=O)N2CCCC(C2)C(=O)NC(Cc2ccc(C(=O)c3ccccc3)cc2)C(=O)NCc2ccccc2CC(=O)N1 (centres unmarked)
pIC50: 5.05
--
Compound: C[N+]1=C(C=CC=CC=C2N(CCCCCC(=O)NCCNC(=O)C3CCNC(=O)C=CC(=O)N4CCCC(Cc5ccccc5)(C4)C(=O)NC(Cc4ccc(-c5ccc(CC(C(=O)O)C(=O)O)cc5)cc4)C(=O)NCc4ccccc4CC(=O)N3)c3ccccc3C2(C)C)C(C)(C)c2ccccc21 (centres unmarked) [Compound B52-Cy5]
pIC50: 5.30
--
Compound: NC(=O)C1CCNC(=O)C=CC(=O)N2CCCC(Cc3ccccc3)(C2)C(=O)NC(Cc2ccc(-c3ccc(C=O)c(B(O)O)c3)cc2)C(=O)NCc2ccccc2CC(=O)N1 (centres unmarked)
pIC50: 4.77
--
Compound: NCCOCCNC(=O)[C@@H]1CCNC(=O)/C=C/C(=O)N2CCC[C@](Cc3ccccc3)(C2)C(=O)N[C@@H](Cc2ccc(-c3ccc(C(=O)O)cc3)cc2)C(=O)NCc2ccccc2CC(=O)N1
pIC50: 4.22
--
Compound: NCCOCCNC(=O)[C@@H]1CCNC(=O)/C=C/C(=O)N2CCC[C@](Cc3ccccc3)(C2)C(=O)N[C@@H](Cc2ccc(-c3ccccc3)cc2)C(=O)NCc2ccccc2CC(=O)N1
pIC50: 6.42
